# Measurement notes: Plasma pharmacokinetics of ALM201 in Phase I patients (validated LC-MS/MS, Phoenix WinNonlin)
# Setup conditions: human, plasma, sc, 160 mg, Plasma concentration, geometric mean (CV%), 160 mg SC, day 18 cycle 1, 3.5 h after dosing, n = 3; LC-MS/MS
No end group written: not given here.
Measure: level at 3.5 h (ng/mL)

1. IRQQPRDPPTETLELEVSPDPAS [ALM201]	995

----------
# Measurement notes: Plasma pharmacokinetics of ALM201 in Phase I patients (validated LC-MS/MS, Phoenix WinNonlin)
# Setup conditions: human, plasma, sc, 10 mg, AUC0-t, Gmean (CV), 10 mg SC, day 18 cycle 2, n = 1; plasma LC-MS/MS
No end group written: not given here.
Measure: AUC(0-t) (ng·h/mL)

1) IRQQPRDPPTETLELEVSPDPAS [ALM201]	702

----------
# Measurement notes: Plasma pharmacokinetics of ALM201 in Phase I patients (validated LC-MS/MS, Phoenix WinNonlin)
# Setup conditions: human, plasma, sc, 10 mg, Cmax, Gmean (CV), 10 mg SC, day 1 cycle 1, n = 1; plasma LC-MS/MS
No end group written: not given here.
Measure: Cmax (ng/mL)

1. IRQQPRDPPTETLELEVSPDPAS [ALM201]	200

----------
# Measurement notes: Plasma pharmacokinetics of ALM201 in Phase I patients (validated LC-MS/MS, Phoenix WinNonlin)
# Setup conditions: human, plasma, sc, 40 mg, Plasma concentration, geometric mean (CV%), 40 mg SC, day 3 cycle 1, 1 h after dosing, n = 1; LC-MS/MS
No end group written: not given here.
Measure: level at 1 h

1. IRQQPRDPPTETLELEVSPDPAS [ALM201]	0.444 µg/mL

----------
# Measurement notes: Plasma pharmacokinetics of ALM201 in Phase I patients (validated LC-MS/MS, Phoenix WinNonlin)
# Setup conditions: human, plasma, sc, 300 mg, Plasma concentration, geometric mean (CV%), 300 mg SC, day 18 cycle 1, 1.5 h after dosing, n = 3; LC-MS/MS
No end group written: not given here.
Measure: level at 1.5 h (ng/mL)

1) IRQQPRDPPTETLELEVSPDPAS [ALM201]	2600

----------
# Measurement notes: Plasma pharmacokinetics of ALM201 in Phase I patients (validated LC-MS/MS, Phoenix WinNonlin)
# Setup conditions: human, plasma, sc, 100 mg, Plasma concentration, geometric mean (CV%), 100 mg SC, day 1 cycle 1, 0.25 h after dosing, n = 4; LC-MS/MS
No end group written: not given here.
Measure: level at 0.25 h (ng/mL)

1) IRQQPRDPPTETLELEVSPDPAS [ALM201]	492

----------
# Measurement notes: Plasma pharmacokinetics of ALM201 in Phase I patients (validated LC-MS/MS, Phoenix WinNonlin)
# Setup conditions: human, plasma, sc, 10 mg, AUC0-t, Gmean (CV), 10 mg SC, day 18 cycle 4, n = 1; plasma LC-MS/MS
No end group written: not given here.
Measure: AUC(0-t)

1) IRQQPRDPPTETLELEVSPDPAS [ALM201]	476 ng·h/mL

----------
# Measurement notes: Plasma pharmacokinetics of ALM201 in Phase I patients (validated LC-MS/MS, Phoenix WinNonlin)
# Setup conditions: human, plasma, sc, 100 mg, Plasma concentration, geometric mean (CV%), 100 mg SC, day 18 cycle 2, 1 h after dosing, n = 1; LC-MS/MS
No end group written: not given here.
Measure: level at 1 h (ng/mL)

1) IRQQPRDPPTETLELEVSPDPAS [ALM201]	1790
